Tested on: Ba/F3 BCR-ABL^WT
Method Summary: cells
Setup Conditions: Mus musculus, BaF3, 72 h, read-out: IC50 Ba/F3 BCR-ABL^WT
Attribute Measured: IC50 (nM)
Please respond with the number in nM and leave the unit unwritten.

Quick one: IC50 of CC[Si](CC)(CC)OC[C@H]1O[C@@H](n2cnc(N)nc2=O)C[C@@H]1O [Compound F] ?
580

---

Tested on: Ba/F3 BCR-ABL^T315I
Method Summary: cells
Setup Conditions: Mus musculus, BaF3, 72 h, read-out: IC50 Ba/F3 BCR-ABL^T315I
Method: The CML cell line (BV173, MYL, Ba/F3 BCR-ABL^WT) and the TKI-resistant CML cell line (MYL-R, Ba/F3 BCR-ABL^T315I) in the Table below were seeded in 96-well plates at 3,000-7,000 cells/100 μL/well in a culture solution (10% FBS and RPMI-1640) and cultured under 5% CO2 gas flow at 37° C. for about 3 hours. […] The values of the wells without sample treatment were taken as 100%, and those of the wells treated with the samples were expressed as relative values. […]
Attribute Measured: IC50 (nM)
Please respond with the number in nM and leave the unit unwritten.

Quick one: IC50 of `CC[Si](CC)(CC)OC[C@H]1O[C@@H](n2cnc(N)nc2=O)C[C@@H]1O` ?
780

---

Test system: MYL-R
Method Summary: cells
Setup Conditions: 72 h, read-out: IC50 MYL-R
Attribute Measured: IC50 (nM)
Please respond with the number in nM and leave the unit unwritten.

Quick one: IC50 of `CC[Si](CC)(CC)OC[C@H]1O[C@@H](n2cnc(N)nc2=O)C[C@@H]1O` ?
790
